Values from PubChem BioAssay (NCI)

Tested on: HCC-2998 colon
procedure_summary: NCI tumour cell line growth inhibition, 48 h; in the data active = GI50 below about 0.43 µM; inactive = the rest
Your answer must be one of the following: active, inactive

Called result for "Cn1cc(C2=C(c3cc[nH]c3)C(=O)NC2=O)c2ccccc21"
inactive

----------
Listing of entries alongside the reported GI50.
System: HS 578T breast
procedure_summary: NCI tumour cell line growth inhibition, 48 h

# molecule, GI50
rows = [
    ("C[C@H]1COCCN1c1nc(-c2cnc(N)cc2C(F)F)nc(N2CCOCC2)n1", "100 nM"),
    ("CCCCSc1nc(N)c2cn[nH]c2n1", "22000 nM"),
]

Now for a further molecule.
# GI50 lookup, item C[C@@]1(C(=O)O)CCC[C@]2(C)C1CC[C@]13C[C@@](O)(CO)[C@](O)(CC[C@]12O)C3 (some centres undefined)
> 100000 nM
